Each entry below carries its reported activity at 10 µM.
- Tested on: HBV viral load in AD38 cells
- test description: Viral load production in AD38 cells, quantitative PCR of the core sequence in supernatant
- Format: cell-based
- test context: Hepatitis B virus, 144 h, 6 days incubation, Table 4, compounds of Group 2, read-out: AD38 Viral Load (%) (VL with cmpd/VL in DMSO control) at 10 μM
The response must be a number in % with no trailing unit.

Worked cases, activity at 10 µM given:
* CC1=C(C)S(=O)(=O)c2ccc(C(=O)NCc3cnc(-c4ccc(C#N)cc4F)s3)cc2NC1=O | 4
* O=C(NCc1cnc(-n2cccn2)s1)c1ccc2c(c1)NC(=O)c1ccncc1S2(=O)=O | 0.9
* N#Cc1ccc(-c2ncc(CNC(=O)c3ccc4c(c3)NC(=O)C3CCCN3S4(=O)=O)s2)c(F)c1 (centres unmarked) | 43
* O=C(NCc1cnc(-n2cccn2)s1)c1ccc2c(c1)NC(=O)[C@H]1CCCCN1S2(=O)=O (single isomer, unassigned) [C25-04-Isomer II] | 1.7
* CC1=C(C)S(=O)(=O)c2ccc(C(=O)NCc3cnc(C(F)(F)F)s3)cc2NC1=O | 12.2
* O=C(NCc1cnc(C(F)(F)F)s1)c1ccc2c(c1)NC(=O)c1ccncc1S2(=O)=O | 6.1

Task item: Fill in the blank: the reported activity at 10 µM of O=C(NCc1cnc(-n2cccn2)s1)c1ccc2c(c1)NC(=O)[C@@H]1CCCCN1S2(=O)=O (single isomer, unassigned) [C25-04-Isomer I] is ____.
Reply: 8.3

Task item: Also `O=C1NC2=C(CCN(C(=O)NCc3cnc(-n4cccn4)s3)C2)S(=O)(=O)c2ccccc21` , if possible.
Reply: 64.4

Task item: Also `Cc1c(C(=O)NCc2cnc(-c3ccc(C#N)cc3F)s2)ccc2c1NC(=O)c1ccncc1S2(=O)=O` , if possible.
Reply: 0.5

----------
- System: HBV viral load in AD38 cells
- test description: Viral load production in AD38 cells, quantitative PCR of the core sequence in supernatant
- Assay type: cell-based
- test context: Hepatitis B virus, 144 h, 6 days incubation, Table 4, compounds of Group 2, read-out: AD38 Viral Load (%) (VL with cmpd/VL in DMSO control) at 10 μM
Parameter threshold = 8%. Response is condition met when activity at 10 µM meets or exceeds it, else condition not met.

- O=C(NCc1cnc(-n2cccn2)s1)c1ccc2c(c1)NC(=O)C1CCCCN1S2(=O)=O (centres unmarked): condition not met
- CC1=C(C)C(=O)Nc2cc(C(=O)NCc3cnc(C(F)(F)F)s3)ccc2O1: condition met
- CC1=C(C)C(=O)Nc2cc(C(=O)NCc3cnc(-c4ccc(C#N)cc4F)s3)ccc2O1: condition met

Task item: Kindly determine if activity at 10 µM recorded for `CC1=C(C)C(=O)Nc2cc(C(=O)NCc3cnc(-c4ccc(C#N)cc4F)s3)ccc2S1` is above or exactly 8%.
Reply: condition met

Task item: Also `O=C(NCc1cnc(-c2ccccc2)s1)c1ccc2c(c1)NC(=O)c1ccncc1S2` , if possible.
Reply: condition not met

----------
Each entry below carries its reported activity at 10 µM.
- Tested on: HBV viral load in AD38 cells
- test description: Viral load production in AD38 cells, quantitative PCR of the core sequence in supernatant
- Assay type: cell-based
- test context: Hepatitis B virus, 144 h, 6 days incubation, Table 4, compounds of Group 2, read-out: AD38 Viral Load (%) (VL with cmpd/VL in DMSO control) at 10 μM
The response must be a number in % with no trailing unit.

Worked cases, activity at 10 µM given:
* Cc1c(C(=O)NCc2cnc(-n3cccn3)s2)ccc2c1NC(=O)c1ccncc1S2(=O)=O | 0.9
* O=C(NCc1cnc(-c2ccc(O)cc2)s1)c1ccc2c(c1)NC(=O)c1ccncc1S2 | 45.6
* N#Cc1ccc(-c2ncc(CNC(=O)c3ccc4c(c3)NC(=O)c3ccncc3S4(=O)=O)s2)c(F)c1 | 0.3
* CC1=C(C)S(=O)(=O)c2ccc(C(=O)NCc3cnc(-c4ccc(OCCCN(C)C)cc4)s3)cc2NC1=O | 11.3

In the following, a different compound is considered.
Task item: Fill in the blank: the reported activity at 10 µM of `CC1=C(C)S(=O)(=O)c2ccc(C(=O)NCc3cnc(-n4cccn4)s3)cc2NC1=O` is ____.
Reply: 1.8

----------
- Tested on: HBV viral load in AD38 cells
- test description: Viral load production in AD38 cells, quantitative PCR of the core sequence in supernatant
- Format: cell-based
- test context: Hepatitis B virus, 144 h, 6 days incubation, Table 4, compounds of Group 2, read-out: AD38 Viral Load (%) (VL with cmpd/VL in DMSO control) at 10 μM
readout type: activity at 10 µM (%)
The response must be a number in % with no trailing unit.

Worked cases, activity at 10 µM given:
• CC1=C(C)C(=O)Nc2cc(C(=O)NCc3cnc(C(F)(F)F)s3)ccc2S1 = 15.5
• N#Cc1ccc(-c2ncc(CNC(=O)c3ccc4c(c3)NC(=O)CC3CCCCN43)s2)c(F)c1 (stereo not drawn) = 48.9

In the following, a different compound is considered.
Task item: Fill in the blank: the reported activity at 10 µM of O=C(NCc1cnc(-n2cccn2)s1)c1ccc2c(c1)NC(=O)C1CCCN1S2(=O)=O (stereo not drawn) is ____.
Reply: 7.7
